# studyConditions: 313.15 K; 7500 kPa; Liquid
testReadout: mass density (kg/m3)
The reply should be a number in kg/m3, with the unit left off.

Here's what some known entries look like.
INSERT INTO assay_data (compound, result) VALUES
  ('CCn1cc[n+](C)c1.O=S(=O)([N-]S(=O)(=O)C(F)(F)F)C(F)(F)F', 1509),
  ('CCCCCCCn1cc[n+](C)c1.O=S(=O)([N-]S(=O)(=O)C(F)(F)F)C(F)(F)F', 1338),
  ('CCCCCCCCn1cc[n+](C)c1.O=S(=O)([N-]S(=O)(=O)C(F)(F)F)C(F)(F)F', 1311);

Read the next record carefully.
Exercise: Using known records, supply mass density for CCn1cc[n+](C)c1.F[B-](F)(F)F [1-ethyl-3-methylimidazolium tetrafluoroborate]
Solution: 1291
